- Assayed System: human CCR6 (Homo sapiens)
- Sequence (P51684 whole entry): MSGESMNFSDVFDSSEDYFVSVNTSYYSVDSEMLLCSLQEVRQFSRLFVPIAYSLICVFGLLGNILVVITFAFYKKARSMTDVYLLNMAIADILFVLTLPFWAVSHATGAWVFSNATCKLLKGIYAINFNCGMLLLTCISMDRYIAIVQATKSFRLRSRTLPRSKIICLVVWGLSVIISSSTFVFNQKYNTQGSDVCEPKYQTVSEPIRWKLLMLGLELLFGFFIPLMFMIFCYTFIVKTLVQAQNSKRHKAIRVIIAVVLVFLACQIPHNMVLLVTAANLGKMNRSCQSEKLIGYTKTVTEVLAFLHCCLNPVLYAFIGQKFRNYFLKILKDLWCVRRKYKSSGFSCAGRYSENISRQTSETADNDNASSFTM
- Assay Details: Migration (chemotaxis) assay, hCCR6-transfected Ba/F3 cells toward CCL20
- Test Parameters: hCCR6-transfected Ba/F3 cells in human serum; recombinant human CCL20 10 nM; 37° C. 45 minutes; read-out: Potency (IC50 value in the migration assay)
Attribute: IC50

Study these solved cases before continuing.
>>> df
                               entry_smiles  quantity_name  observed_result
0  N#Cc1ccc2nc(-c3ccc(S(=O)(=O)N4CCC(Nc5ccc(C(F)(F)F)cn5)CC4)cc3)sc2c1           IC50  0.005 to 0.1 µM
1  CC(C)(C)OC(=O)N1CCC=C(c2ccc(S(=O)(=O)N3CCC(Nc4ccc(C(F)(F)F)cn4)CC3)cc2)C1           IC50  0.005 to 0.1 µM
2  NC(=O)N1CC(C2CN(c3ccc(S(=O)(=O)N4CCC(Nc5ccc(C(F)(F)F)cn5)CC4)cc3)C2)C1           IC50  0.005 to 0.1 µM
3  O=S(=O)(c1ccc(N2CC[C@H](O)[C@@H](CO)C2)cc1)N1CCC(Nc2ccc(C(F)(F)F)cn2)CC1           IC50  0.005 to 0.1 µM
4  NC(=O)CN1Cc2ccc(-c3ccc(S(=O)(=O)N4CCC(Nc5ccc(C(F)(F)F)cn5)CC4)cc3)cc2C1=O           IC50  0.005 to 0.1 µM

Problem: Would you mind telling me what IC50 value was observed for NC(=O)C1CN(c2ccc(S(=O)(=O)N3CCC(Nc4ccc(C(F)(F)F)cn4)CC3)cc2)C1 ?
Result: 0.1 to 10 µM

meta.source: patent US12012403B2
